The values you see were collected from ChEMBL document CHEMBL1125676.

// log10(IC50) lookup, one value per entry
- TESTED_ON: GABA-A receptor; anion channel
- EXPERIMENTAL_PROTOCOL: Binding affinity to picrotoxin site of the Gamma-aminobutyric acid receptor was measured using [35S]TBPS as radioligand
- Type: protein-complex assay
Field: value | Transform: log10 | Quantity: IC50 | Unit: µM

Record excerpt, results attached:
COMPOUND	log10(IC50)
CC(C)C1(C)CCSC1=O (stereo not given)	2.15
CC(C)C1(C)CCOC1=O (stereo not given)	2.93
CCC1(C)COC(=O)C1 (stereo not given)	4.74

Which log10(IC50) is reported for this compound? CC1CCSC1=O (stereo not given)
3.64

Reported log10(IC50), compound CCC1(C)CCSC1=O (stereo not given) : ____
2.52

====

Entries and their TD50 values follow.
- EXPERIMENTAL_PROTOCOL: Neurotoxic effects by rotarod test in mice.
- Type: ADME, organism-based
- RECORDED_CONDITIONS: mouse, in vivo

COMPOUND	TD50
CC(C)C1CCSC1=O (stereo not given)	> 500 mg/kg
CC(C)(C)C1CCOC1=O (stereo not given)	> 500 mg/kg
CC(C)(C)C1CCSC1=O (stereo not given)	> 500 mg/kg
CCC1(CC)CCSC1=O	285 mg/kg
CC(C)C1(C)CCOC1=O (stereo not given)	278 mg/kg
CC1(C)CCSC1=O	220 mg/kg
CC(C)C1(C(C)C)CCSC1=O	> 500 mg/kg
CCC1(CC)CCOC1=O	416 mg/kg
CCC1CCOC1=O (stereo not given)	> 500 mg/kg
CC(C)C1CCOC1=O (stereo not given)	> 400 mg/kg

Entry CCC1(C)CCOC1=O (stereo not given) : reported TD50 = ?
621 mg/kg

Data request, read-out TD50, for CCC1CCSC1=O (stereo not given)
> 500 mg/kg

Request the reported TD50 associated with CC1(C)CCOC1=O
> 500 mg/kg

Fill in the blank: the reported TD50 of CC1CCOC1=O (stereo not given) is ____.
> 500 mg/kg

Which TD50 reading was recorded for the compound CC(C)C1(C)CCSC1=O (stereo not given) ?
> 500 mg/kg
